The measured values listed here are drawn from patent US20220324835A1.

List of IC50 values.
SYSTEM: Cbl-b (Homo sapiens)
Sequence (Q13191 36-427): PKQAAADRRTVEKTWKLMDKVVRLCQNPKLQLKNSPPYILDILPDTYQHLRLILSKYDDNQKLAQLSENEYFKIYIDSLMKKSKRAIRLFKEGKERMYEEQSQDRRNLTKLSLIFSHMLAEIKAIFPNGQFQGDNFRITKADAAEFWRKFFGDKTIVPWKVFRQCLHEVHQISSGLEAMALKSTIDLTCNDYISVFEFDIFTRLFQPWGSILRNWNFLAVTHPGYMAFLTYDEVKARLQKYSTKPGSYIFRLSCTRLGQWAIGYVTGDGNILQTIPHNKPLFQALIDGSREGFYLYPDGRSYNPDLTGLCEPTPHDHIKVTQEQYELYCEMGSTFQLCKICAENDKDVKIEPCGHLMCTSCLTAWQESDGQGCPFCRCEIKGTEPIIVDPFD
ASSAY PROTOCOL: Cbl-b inhibition assay (Cbl-b activity assay, FRET, Biological Example 1; 100 mM NaCl, 60 nM Src kinase)
Type: biochemical
SETUP CONDITIONS: upper bound stated in text lists; read-out: IC50 values in the Cbl-b inhibition assay of Biological Example 1
QUANTITY MEASURED: IC50

{"COMPOUND": "CC(c1cc2c(c(C(F)(F)F)c1)CN(c1cccc(C3(Cc4nncn4C)COC3)c1)C2=O)N1CC(S(C)(=O)=O)C1 (stereo not shown)", "VALUE OBSERVED": "≤ 0.1 µM"}
{"COMPOUND": "CCNc1cc(C(C)Sc2nncn2C)cc(N2Cc3c(cccc3C(F)(F)F)C2=O)n1 (stereo not shown)", "VALUE OBSERVED": "≤ 1 µM"}
{"COMPOUND": "CC(Sc1nncn1C)c1cc(N)nc(N2Cc3c(cccc3C(F)(F)F)C2=O)c1 (stereo not shown)", "VALUE OBSERVED": "≤ 10 µM"}
{"COMPOUND": "C[C@H](Sc1nncn1C)c1ccnc(NC(=O)c2ccc3c(n2)CCCC3)c1", "VALUE OBSERVED": "≤ 10 µM"}
{"COMPOUND": "C[C@@H](Sc1nncn1C)c1ccc(F)c(NC(=O)c2cccc(C(F)(F)F)n2)c1 [Compound 95b]", "VALUE OBSERVED": "≤ 10 µM"}
{"COMPOUND": "Cn1cnnc1[C@H]1CC[C@H]1c1cccc(N2Cc3c(cccc3C(F)(F)F)C2=O)c1 (racemic)", "VALUE OBSERVED": "≤ 1 µM"}
{"COMPOUND": "Cn1cnnc1CC1(c2cccc(N3Cc4c(cc(CN5CCC6(CC6)C(F)(F)C5)cc4C(F)(F)F)C3=O)c2)COC1", "VALUE OBSERVED": "≤ 0.1 µM"}

* * *

Tested on: human T-cells with allogenic immature dendritic cells
ASSAY PROTOCOL: Allogenic mixed lymphocyte reaction (MLR), T-cell proliferation
Type: cell-based
SETUP CONDITIONS: 120 h, 10 μM, 5 days, baseline T-cells without Cbl-b inhibitor, read-out: Proliferation, fold change over baseline
List of fold induction at 10 µM values.
QUANTITY MEASURED: fold induction at 10 µM

{"COMPOUND": "Cn1cnnc1C(F)(F)[C@](C)(F)c1cccc(N2Cc3c(cc(N4CCNCC4)cc3C(F)(F)F)C2=O)c1 [Compound 442]", "QUANTITY MEASURED": "fold induction at 10 µM", "VALUE OBSERVED": "< 2"}
{"COMPOUND": "Cn1cnnc1CC1(c2cccc(N3Cc4c(cc(CN5CC[C@H](C#N)C5)cc4C(F)(F)F)C3=O)c2)COC1 [Compound 422]", "QUANTITY MEASURED": "fold induction at 10 µM", "VALUE OBSERVED": "2.01 to 3"}
{"COMPOUND": "Cn1cnnc1CC1(c2cccc(NC(=O)c3cc(CN4CCC5(CC5)C4)cc(C4CC4)n3)c2)COC1 [Compound 519]", "QUANTITY MEASURED": "fold induction at 10 µM", "VALUE OBSERVED": "> 3.01"}
{"COMPOUND": "Cn1cnnc1C(F)(F)[C@](C)(F)c1cccc(N2Cc3c(cc(CN4CC[C@@H](C#N)C4)cc3C(F)(F)F)C2=O)c1 [Compound 455]", "QUANTITY MEASURED": "fold induction at 10 µM", "VALUE OBSERVED": "< 2"}
{"COMPOUND": "COC1CN(Cc2cc3c(c(C(F)(F)F)c2)CN(c2cccc([C@@](C)(F)C(F)(F)c4nncn4C)c2)C3=O)C1 [Compound 452]", "QUANTITY MEASURED": "fold induction at 10 µM", "VALUE OBSERVED": "< 2"}
{"COMPOUND": "C[C@H](Cc1nncn1C)c1cccc(NC(=O)c2n[nH]c3c2CCC3)c1 [Compound 313]", "QUANTITY MEASURED": "fold induction at 10 µM", "VALUE OBSERVED": "< 2"}
{"COMPOUND": "C[C@H](Cc1nncn1C)c1cccc(N2Cc3c(cccc3C(F)(F)F)C2=O)c1 [Compound 255a]", "QUANTITY MEASURED": "fold induction at 10 µM", "VALUE OBSERVED": "< 2"}
{"COMPOUND": "C[C@H](Cc1nncn1C)c1cccc(N2Cc3c(cc(CN4CC[C@](C)(O)C4)cc3C(F)(F)F)C2=O)c1 [Compound 398]", "QUANTITY MEASURED": "fold induction at 10 µM", "VALUE OBSERVED": "2.01 to 3"}
{"COMPOUND": "Cn1cnnc1CC1(c2cccc(N3Cc4c(cc(CN5CCC6(CC6)C5)cc4C(F)(F)F)C3=O)c2)COC1 [Compound 520]", "QUANTITY MEASURED": "fold induction at 10 µM", "VALUE OBSERVED": "> 3.01"}

* * *

System: primary human total T-cells
ASSAY PROTOCOL: T-cell activation assessed by cytokine secretion (GM-CSF, IFNγ, TNFα)
Format: cell-based
SETUP CONDITIONS: CD3/CD28 stimulation, 1.11 μM, read-out: TNFα secretion
QUANTITY MEASURED: fold induction at 1.11 µM

{"COMPOUND": "C[C@H](Sc1nncn1C)c1cccc(NC(=O)c2cc(C(=O)N3CC[C@H](O)C3)ccn2)c1 [Compound 140]", "VALUE OBSERVED": "2.01 to 4"}
{"COMPOUND": "C[C@H](Cc1nncn1C)c1cccc(N2Cc3c(cc(CN4CC[C@H](F)C4)cc3C(F)(F)F)C2=O)c1 [Compound 399]", "VALUE OBSERVED": "2.01 to 4"}
{"COMPOUND": "C[C@H](Cc1nncn1C)c1cccc(N2Cc3c(cc(CN4CC(O)C4)cc3C(F)(F)F)C2=O)c1 [Compound 393]", "VALUE OBSERVED": "≤ 1.5"}
{"COMPOUND": "Cn1cnnc1[C@@H]1C[C@@H]1c1cccc(N2Cc3c(cccc3C(F)(F)F)C2=O)c1 [Compound 282]", "VALUE OBSERVED": "≤ 1.5"}
{"COMPOUND": "Cn1cnnc1[C@@H]1C[C@@H]1c1cccc(N2Cc3c(ccnc3C(F)(F)F)C2=O)c1 [Compound 369]", "VALUE OBSERVED": "≤ 1.5"}
{"COMPOUND": "Cn1cnnc1CC1(c2cccc(N3Cc4c(cc(CN5CC(F)C5)cc4C(F)(F)F)C3=O)c2)COC1 [Compound 415]", "VALUE OBSERVED": "2.01 to 4"}
{"COMPOUND": "C[C@H](Cc1nncn1C)c1cccc(NC(=O)c2cccc(C(F)(F)F)n2)c1 [Compound 183a]", "VALUE OBSERVED": "2.01 to 4"}
{"COMPOUND": "COC1CN(Cc2cc3c(c(C(F)(F)F)c2)CN(c2cccc([C@@](C)(F)C(F)(F)c4nncn4C)c2)C3=O)C1 [Compound 452]", "VALUE OBSERVED": "1.51 to 2"}
{"COMPOUND": "Cc1cc(C(=O)Nc2cccc([C@@H](C)Cc3nncn3C)c2)nc(C2CC2)n1 [Compound 325]", "VALUE OBSERVED": "≤ 1.5"}
{"COMPOUND": "C[C@H](Cc1nncn1C)c1cccc(N2Cc3c(cccc3C(F)(F)F)C2=O)c1 [Compound 255a]", "VALUE OBSERVED": "≤ 1.5"}

* * *

List of fold induction at 3 µM values.
Tested on: human T-cells with allogenic immature dendritic cells
ASSAY PROTOCOL: Allogenic mixed lymphocyte reaction (MLR), T-cell proliferation
Type: cell-based
SETUP CONDITIONS: 120 h, 3 μM, 5 days, baseline T-cells without Cbl-b inhibitor, read-out: Proliferation, fold change over baseline

{"SAMPLE SMILES": "C[C@H](Cc1nncn1C)c1cccc(N2Cc3c(cc(CN4CC(C)(O)C4)cc3C(F)(F)F)C2=O)c1", "SYSTEM": "human T-cells with allogenic immature dendritic cells", "fold induction at 3 µM": "< 2"}
{"SAMPLE SMILES": "C[C@H](Cc1nncn1C)c1cccc(NC(=O)c2cc3cc(N4CCNCC4)ccc3cn2)c1", "SYSTEM": "human T-cells with allogenic immature dendritic cells", "fold induction at 3 µM": "< 2"}
{"SAMPLE SMILES": "Cc1cc2c(c(C3CC3)n1)CN(c1cccc([C@H](C)Cc3nncn3C)c1)C2=O", "SYSTEM": "human T-cells with allogenic immature dendritic cells", "fold induction at 3 µM": "< 2"}
{"SAMPLE SMILES": "C[C@H](Sc1nncn1C)c1cccc(NC(=O)c2cc(C(=O)N3CC[C@H](O)C3)ccn2)c1", "SYSTEM": "human T-cells with allogenic immature dendritic cells", "fold induction at 3 µM": "< 2"}
{"SAMPLE SMILES": "Cn1cnnc1CC1(c2cccc(N3Cc4c(cc(CN5CC(F)C5)cc4C(F)(F)F)C3=O)c2)COC1", "SYSTEM": "human T-cells with allogenic immature dendritic cells", "fold induction at 3 µM": "2.01 to 3"}
{"SAMPLE SMILES": "Cc1cc(C(=O)Nc2cccc([C@H](C)Cc3nncn3C)c2)nc(C2CC2)n1", "SYSTEM": "human T-cells with allogenic immature dendritic cells", "fold induction at 3 µM": "< 2"}
{"SAMPLE SMILES": "Cn1cnnc1C(F)(F)[C@](C)(F)c1cccc(N2Cc3c(cc(CN4CC[C@@H](C#N)C4)cc3C(F)(F)F)C2=O)c1", "SYSTEM": "human T-cells with allogenic immature dendritic cells", "fold induction at 3 µM": "< 2"}
{"SAMPLE SMILES": "C[C@H](Cc1nncn1C)c1cccc(NC(=O)c2n[nH]c3c2CCC3)c1", "SYSTEM": "human T-cells with allogenic immature dendritic cells", "fold induction at 3 µM": "< 2"}
{"SAMPLE SMILES": "Cn1cnnc1CC1(c2cccc(NC(=O)c3nc4c(C(F)(F)F)cccc4[nH]3)c2)COC1", "SYSTEM": "human T-cells with allogenic immature dendritic cells", "fold induction at 3 µM": "< 2"}
{"SAMPLE SMILES": "C[C@H](c1cc2c(c(C(F)(F)F)c1)CN(c1cccc(C3(Cc4nncn4C)COC3)c1)C2=O)N1CC[C@H](F)C1", "SYSTEM": "human T-cells with allogenic immature dendritic cells", "fold induction at 3 µM": "2.01 to 3"}
{"SAMPLE SMILES": "COC1CN(Cc2cc3c(c(C(F)(F)F)c2)CN(c2cccc([C@@](C)(F)C(F)(F)c4nncn4C)c2)C3=O)C1", "SYSTEM": "human T-cells with allogenic immature dendritic cells", "fold induction at 3 µM": "< 2"}
